test system: HEK293; assay: Cytotoxicity against HEK293 cells assessed as reduction in cell viability at 25 uM measured after 18 hrs by alamar blue assay; format: cell-based; details: human, hek293, 18 h
measuredMetric: Activity

smilesText: COC1=CC(=O)N(C(=O)/C=C/[C@H](C)NC(=O)[C@H](CC(C)C)NC(=O)[C@H](CCc2ccccc2)NC(=O)[C@H](C(C)C)N(C)C)[C@H]1Cc1c[nH]c2ccccc12.O=C(O)C(F)(F)F
subjectOfTest: HEK293
valueMeasured: Non-Toxic
--
smilesText: COC1=CC(=O)N(C(=O)/C=C/[C@H](C)NC(=O)[C@H](CC(C)C)NC(=O)[C@H](CC(C)C)NC(=O)C2CCN(C)CC2)[C@H]1Cc1c[nH]c2ccccc12.O=C(O)C(F)(F)F
subjectOfTest: HEK293
valueMeasured: Non-Toxic
--
smilesText: COC1=CC(=O)N(C(=O)/C=C/[C@@H](NC(=O)[C@H](CC(C)C)NC(=O)[C@H](CC(C)C)NC(=O)[C@H](C(C)C)N(C)C)C2CCCCC2)[C@H]1Cc1c[nH]c2ccccc12.O=C(O)C(F)(F)F
subjectOfTest: HEK293
valueMeasured: Non-Toxic
--
smilesText: COC1=CC(=O)N(C(=O)/C=C/[C@H](C)NC(=O)[C@H](CC(C)C)NC(=O)[C@H](CC(C)C)NC(=O)[C@H](C(C)C)N(C)C)[C@H]1Cc1c[nH]c2ccccc12.O=C(O)C(F)(F)F
subjectOfTest: HEK293
valueMeasured: Non-Toxic
--
smilesText: COC1=CC(=O)N(C(=O)/C=C/[C@H](CCc2ccccc2)NC(=O)[C@H](CC(C)C)NC(=O)[C@H](CC(C)C)NC(=O)[C@H](C(C)C)N(C)C)[C@H]1Cc1c[nH]c2ccccc12.O=C(O)C(F)(F)F
subjectOfTest: HEK293
valueMeasured: Non-Toxic
--
smilesText: COC1=CC(=O)N(C(=O)/C=C/[C@H](C)NC(=O)[C@H](CC(C)C)NC(=O)[C@H](CC2CCCCC2)NC(=O)C2CCN(C)CC2)[C@H]1Cc1c[nH]c2ccccc12.O=C(O)C(F)(F)F
subjectOfTest: HEK293
valueMeasured: Non-Toxic

----------
Listed below: pIC50 values for each entry.
target: Falcipain 2 (Plasmodium falciparum)
Sequence (Q9N6S8 whole entry): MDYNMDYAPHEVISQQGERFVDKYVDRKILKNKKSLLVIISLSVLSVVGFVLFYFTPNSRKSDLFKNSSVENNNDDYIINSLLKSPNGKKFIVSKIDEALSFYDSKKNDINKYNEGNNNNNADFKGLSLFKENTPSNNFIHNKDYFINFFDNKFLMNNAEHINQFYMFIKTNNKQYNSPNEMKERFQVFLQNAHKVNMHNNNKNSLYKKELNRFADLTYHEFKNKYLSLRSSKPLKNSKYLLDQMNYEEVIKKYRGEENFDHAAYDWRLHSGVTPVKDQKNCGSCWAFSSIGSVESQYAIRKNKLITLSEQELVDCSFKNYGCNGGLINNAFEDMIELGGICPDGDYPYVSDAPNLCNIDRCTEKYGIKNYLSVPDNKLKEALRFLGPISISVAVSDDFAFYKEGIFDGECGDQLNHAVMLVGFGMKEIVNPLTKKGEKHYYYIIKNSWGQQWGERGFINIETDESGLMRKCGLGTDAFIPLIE
pIC50: −log10 of the molar value.

smilesText: COC1=CC(=O)N(C(=O)/C=C/[C@H](C)NC(=O)C(C)(C)NC(=O)[C@H](CC(C)C)NC(=O)[C@H](C(C)C)N(C)C)[C@H]1Cc1c[nH]c2ccccc12
resultOperator: <
pIC50: 4.30
--
smilesText: COC1=CC(=O)N(C(=O)/C=C/[C@H](C)NC(=O)[C@H](CCc2ccccc2)NC(=O)[C@H](CC2CCCCC2)NC(=O)[C@H](C(C)C)N(C)C)[C@H]1Cc1c[nH]c2ccccc12
resultOperator: =
pIC50: 5.45
--
smilesText: COC1=CC(=O)N(C(=O)/C=C/[C@H](C)NC(=O)[C@H](CC2CCCCC2)NC(=O)[C@H](CC(C)C)NC(=O)C2CCN(C)CC2)[C@H]1Cc1c[nH]c2ccccc12
resultOperator: =
pIC50: 6.81
--
smilesText: COC1=CC(=O)N(C(=O)/C=C/[C@H](C)NC(=O)[C@H](CC(C)C)NC(=O)[C@H](CC2CCCCC2)NC(=O)C2CCN(C)CC2)[C@H]1Cc1c[nH]c2ccccc12.O=C(O)C(F)(F)F
resultOperator: =
pIC50: 7.51
--
smilesText: COC1=CC(=O)N(C(=O)/C=C/C(C)(C)NC(=O)[C@H](CC(C)C)NC(=O)[C@H](CC(C)C)NC(=O)[C@H](C(C)C)N(C)C)[C@H]1Cc1c[nH]c2ccccc12
resultOperator: <
pIC50: 4.30
